Data origin: paper PMC8219027

# assayedTarget: CYP450 2C19 (Homo sapiens, UniProt P33261)
# Sequence (P33261 whole entry): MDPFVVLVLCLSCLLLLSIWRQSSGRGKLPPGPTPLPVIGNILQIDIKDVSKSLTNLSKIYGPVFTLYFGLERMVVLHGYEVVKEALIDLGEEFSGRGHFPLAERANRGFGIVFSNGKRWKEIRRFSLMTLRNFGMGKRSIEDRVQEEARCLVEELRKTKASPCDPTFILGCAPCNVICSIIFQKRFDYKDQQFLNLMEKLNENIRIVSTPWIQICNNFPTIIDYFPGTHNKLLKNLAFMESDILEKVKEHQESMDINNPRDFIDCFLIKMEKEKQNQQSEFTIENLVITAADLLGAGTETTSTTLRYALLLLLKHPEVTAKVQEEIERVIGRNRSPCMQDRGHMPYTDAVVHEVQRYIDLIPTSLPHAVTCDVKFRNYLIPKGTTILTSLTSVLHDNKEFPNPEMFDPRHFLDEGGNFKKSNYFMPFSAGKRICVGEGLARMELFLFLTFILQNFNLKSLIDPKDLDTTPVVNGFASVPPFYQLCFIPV
measuredProperty: IC50

Query: Any idea what IC50 came out for COc1ccc([C@H](C)NC(=O)[C@@H]2C[C@@H](O)CN2C(=O)CNC(=O)c2ccc3cc(F)ccc3n2)c(Cl)c1 [CAM833] on CYP450 2C19 (Homo sapiens, UniProt P33261)?
Reply: > 25 µM

----------
# assayedTarget: CYP450 3A4 (Homo sapiens, UniProt P08684)
# Construct: Cyprotex (contract data)
# Sequence (P08684 whole entry): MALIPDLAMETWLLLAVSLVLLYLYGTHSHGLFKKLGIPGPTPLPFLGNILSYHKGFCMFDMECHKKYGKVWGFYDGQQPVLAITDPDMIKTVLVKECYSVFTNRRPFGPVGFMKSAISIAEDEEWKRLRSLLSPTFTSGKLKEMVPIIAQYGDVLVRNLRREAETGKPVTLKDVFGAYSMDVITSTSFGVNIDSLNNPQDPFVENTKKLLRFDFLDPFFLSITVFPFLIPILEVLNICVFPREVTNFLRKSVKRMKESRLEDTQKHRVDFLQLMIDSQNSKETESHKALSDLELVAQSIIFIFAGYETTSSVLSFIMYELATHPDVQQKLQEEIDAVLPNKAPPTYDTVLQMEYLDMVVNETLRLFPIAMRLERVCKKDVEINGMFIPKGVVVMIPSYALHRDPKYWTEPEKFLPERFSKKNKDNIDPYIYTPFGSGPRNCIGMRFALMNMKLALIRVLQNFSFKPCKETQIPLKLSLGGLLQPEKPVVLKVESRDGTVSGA
# methodNotes: CYP450 inhibition
# Type: in vitro ADME
# measurementSetup: 3A4 testosterone site
measuredProperty: IC50

Query: Can you look up the measured IC50 of COc1ccc([C@H](C)NC(=O)[C@@H]2C[C@@H](O)CN2C(=O)CNC(=O)c2ccc3cc(F)ccc3n2)c(Cl)c1 for me?
Reply: > 25 µM
